Origin of measurements: patent US5624902A

measuredOn: UniProtKB P0DP23
experimentalDetails: calcium-dependent phosphodiesterase assay (inhibition of calmodulin activity)
Format: biochemical
conditions: inhibition of calmodulin activation of phosphodiesterase at 50 μM peptide; PDE without calmodulin = 100%, Calmo = 0%
Square brackets hold non-standard residues; d marks the D form. Peptide text beside a SMILES is read from it.
As shown below, each of these molecules has a reported inhibition at 50 µM value.
Write the answer as a number in %, unit excluded.

Please review the entries below; each comes with its answer.
{"molecule": "CC(=O)N[C@H](CC(C)C)C(=O)N[C@H](CCC(N)=O)C(=O)N[C@H](CCCNC(=N)N)C(=O)N[C@H](Cc1c[nH]cn1)C(=O)N[C@H](CC(C)C)C(=O)N[C@H](CCCNC(=N)N)C(N)=O (Ac-[dL][dQ][dR][dH][dL][dR]-NH2)", "measuredOn": "UniProtKB P0DP23", "testReadout": "inhibition at 50 µM", "valueReported": 64.5}
{"molecule": "CC[C@@H](C)[C@@H](NC(=O)[C@@H](CCCNC(=N)N)NC(=O)[C@@H](CCC(N)=O)NC(=O)[C@@H](CC(C)C)NC(C)=O)C(=O)N[C@H](Cc1c[nH]cn1)C(=O)N[C@H](CCCNC(=N)N)C(N)=O (Ac-[dL][dQ][dR][dI][dH][dR]-NH2)", "measuredOn": "UniProtKB P0DP23", "testReadout": "inhibition at 50 µM", "valueReported": 21.1}
{"molecule": "CC[C@@H](C)[C@@H](NC(=O)[C@@H](CCCNC(=N)N)NC(=O)[C@@H](CCC(N)=O)NC(=O)[C@@H](CC(C)C)NC(C)=O)C(=O)N[C@H](CC(C)C)C(=O)N[C@H](Cc1c[nH]c2ccccc12)C(N)=O (Ac-[dL][dQ][dR][dI][dL][dW]-NH2)", "measuredOn": "UniProtKB P0DP23", "testReadout": "inhibition at 50 µM", "valueReported": 44.5}

// query Look at this molecule and give its reported inhibition at 50 µM. CC[C@@H](C)[C@@H](NC(=O)[C@@H](Cc1c[nH]c2ccccc12)NC(=O)[C@@H](CC(C)C)NC(C)=O)C(=O)N[C@H](Cc1c[nH]cn1)C(=O)N[C@H](CC(C)C)C(=O)N[C@H](CCCNC(=N)N)C(N)=O (Ac-[dL][dW][dI][dH][dL][dR]-NH2)
// result 103

// query Follow-up entry: CC[C@@H](C)[C@@H](NC(=O)[C@@H](Cc1c[nH]c2ccccc12)NC(=O)[C@@H](CC(C)C)NC(C)=O)C(=O)N[C@H](Cc1c[nH]cn1)C(=O)N[C@H](CC(C)C)C(=O)N[C@H](Cc1c[nH]c2ccccc12)C(N)=O (Ac-[dL][dW][dI][dH][dL][dW]-NH2)
// result 103

// query Follow-up entry: CC[C@@H](C)[C@@H](NC(=O)[C@@H](CCC(N)=O)NC(=O)[C@@H](CC(C)C)NC(C)=O)C(=O)N[C@@H](C(=O)N[C@H](CC(C)C)C(=O)N[C@H](Cc1c[nH]c2ccccc12)C(N)=O)[C@H](C)CC (Ac-[dL][dQ][dI][dI][dL][dW]-NH2)
// result 47.4

// query Follow-up entry: CSCC[C@@H](NC(=O)[C@@H](CCSC)NC(=O)[C@@H](Cc1ccccc1)NC(=O)[C@@H](Cc1c[nH]cn1)NC(=O)[C@@H](CC(=O)O)NC(C)=O)C(=O)N[C@H](C)C(N)=O [Ctr 2, reference compound] (Ac-[dD][dH][dF][dM][dM][dA]-NH2)
// result 35.5

// query Follow-up entry: CC[C@@H](C)[C@@H](NC(=O)[C@@H](CCCNC(=N)N)NC(=O)[C@@H](Cc1c[nH]c2ccccc12)NC(=O)[C@@H](CC(C)C)NC(C)=O)C(=O)N[C@H](Cc1c[nH]cn1)C(=O)N[C@H](Cc1c[nH]c2ccccc12)C(N)=O (Ac-[dL][dW][dR][dI][dH][dW]-NH2)
// result 52.6
